tested on: HCC827 cells (EGFR Exon19 del, non-small cell lung cancer cells); test: Cell viability assay (WST/CCK8), HCC827 cells; format: cell-based; conditions: Homo sapiens, HCC827, 72 h, Table 6, canertinib-based compounds; HCC827 (Exon19 Del); 72 hours; WST; read-out: IC50 (half inhibitory concentration)
test.readout: IC50 (nM)

Here is how some molecules turned out for IC50.
C=CC(=O)Nc1cc2c(Nc3ccc(F)c(Cl)c3)ncnc2cc1OCCCN1CCN(C(=O)CCc2ccc(CCC(=O)N[C@H](C(=O)N3C[C@H](O)C[C@H]3C(=O)NCc3ccc(-c4scnc4C)cc3)C(C)(C)C)cc2)CC1 [SIAIS249102]; 25.2
C=CC(=O)Nc1cc2c(Nc3ccc(F)c(Cl)c3)ncnc2cc1OCCCN1CCC(N2CCN(C(=O)CCCCCCNc3cccc4c3C(=O)N(C3CCC(=O)NC3=O)C4=O)CC2)CC1 (stereo not drawn) [SIAIS262179]; 2.5
C=CC(=O)Nc1cc2c(Nc3ccc(F)c(Cl)c3)ncnc2cc1OCCCN1CCC(N2CCN(C(=O)CSc3cccc4c3CN(C3CCC(=O)NC3=O)C4=O)CC2)CC1 (stereo not drawn) [SIAIS262174]; 11

(A) C=CC(=O)Nc1cc2c(Nc3ccc(F)c(Cl)c3)ncnc2cc1OCCCN1CCN(C(=O)CCC(=O)NCCOCCNc2cccc3c2C(=O)N(C2CCC(=O)NC2=O)C3=O)CC1 (stereo not drawn) [SIAIS249099]
(B) C=CC(=O)Nc1cc2c(Nc3ccc(F)c(Cl)c3)ncnc2cc1OCCCN1CCN(C(=O)CCOCCOCCNc2cccc3c2C(=O)N(C2CCC(=O)NC2=O)C3=O)CC1 (stereo not drawn) [SIAIS262127]
// select label with min value of measured IC50 from [ A , B ] Kindly give the label for the entry you pick.
B
(B: 6.4 nM, A: 11.8 nM)
